# Test system: rats of diabetes mellitus
# procedure.details: Blood sugar level in streptozotocin-induced diabetes mellitus
# Type: in vivo, male rats of Wistar line
# protocol.conditions: 50 mg/kg, i.o.; administered for 1 week beginning 1 week after streptozotocin (40 mg/kg); serum
readout.type: Blood Sugar Level ± S.E. (mg/dL)

C[C@H](CC[C@H](O)C(CO)CO)[C@H]1CC[C@H]2[C@@H]3[C@H](O)C[C@@H]4C[C@H](O)CC[C@]4(C)[C@H]3C[C@H](O)[C@]12C :: 112
C[C@H](CCCC(CO)CO)[C@H]1CC[C@H]2[C@@H]3[C@H](O)C[C@H]4C[C@H](O)CC[C@]4(C)[C@H]3C[C@H](O)[C@]12C :: 161
C[C@H](CCCO)[C@H]1CC[C@H]2[C@@H]3[C@H](O)C[C@@H]4C[C@H](O)CC[C@]4(C)[C@H]3C[C@H](O)[C@]12C [Illustrative Example 6, 3α,7α,12α,24-tetrahydroxy-5β-cholan] :: 159
C[C@H](CC[C@@H](O)CCO)[C@H]1CC[C@H]2[C@@H]3[C@H](O)C[C@@H]4C[C@H](O)CC[C@]4(C)[C@H]3C[C@H](O)[C@]12C :: 171
C[C@H](CC[C@@H](O)C1COC1)[C@H]1CC[C@H]2[C@@H]3[C@H](O)C[C@@H]4C[C@H](O)CC[C@]4(C)[C@H]3C[C@H](O)[C@]12C :: 122
C[C@H](CC[C@H](O)[C@H](C)CO)[C@H]1CC[C@H]2[C@@H]3[C@H](O)C[C@@H]4C[C@H](O)CC[C@]4(C)[C@H]3C[C@H](O)[C@]12C :: 133
C[C@H](CCCC(C)(O)CO)[C@H]1CC[C@H]2[C@@H]3[C@H](O)C[C@@H]4C[C@H](O)CC[C@]4(C)[C@H]3C[C@H](O)[C@]12C (stereo partly drawn) :: 133
C[C@H](CC[C@@H](O)[C@@H](C)CO)[C@H]1CC[C@H]2[C@@H]3[C@H](O)C[C@@H]4C[C@H](O)CC[C@]4(C)[C@H]3C[C@H](O)[C@]12C :: 187
C[C@H](CC[C@H]1OC[C@H]1CO)[C@H]1CC[C@H]2[C@@H]3[C@H](O)C[C@@H]4C[C@H](O)CC[C@]4(C)[C@H]3C[C@H](O)[C@]12C :: 181
C[C@H](CC[C@H](O)CCO)[C@H]1CC[C@H]2[C@@H]3[C@H](O)C[C@@H]4C[C@H](O)CC[C@]4(C)[C@H]3C[C@H](O)[C@]12C :: 165
C[C@H](CC[C@@H](O)C(CO)CO)[C@H]1CC[C@H]2[C@@H]3[C@H](O)C[C@@H]4C[C@H](O)CC[C@]4(C)[C@H]3C[C@H](O)[C@]12C :: 177
CC(C)C(O)CC[C@@H](C)[C@H]1CC[C@H]2[C@@H]3[C@H](O)C[C@@H]4C[C@H](O)CC[C@]4(C)[C@H]3C[C@H](O)[C@]12C (stereo partly drawn) [Illustrative Example 5, 3α,7α,12α,24-tetrahydroxy-5β-cholestane] :: 170

----------
# Tested on: rats of diabetes mellitus
# procedure.details: Blood sugar level in streptozotocin-induced diabetes mellitus
# Type: in vivo, male rats of Wistar line
# protocol.conditions: 50 mg/kg, i.o.; administered for 1 week beginning 1 week after streptozotocin (40 mg/kg); serum
readout.type: Blood Sugar Level ± S.E. (mg/dL)

C[C@H](CO)[C@H](O)CC[C@@H](C)[C@H]1CC[C@H]2[C@@H]3[C@H](O)C[C@@H]4C[C@H](O)CC[C@]4(C)[C@H]3C[C@H](O)[C@]12C :: 163
C[C@H](CC[C@H](O)[C@@H](C)CO)[C@H]1CC[C@H]2[C@@H]3[C@H](O)C[C@@H]4C[C@H](O)CC[C@]4(C)[C@H]3C[C@H](O)[C@]12C :: 125
C[C@H](CCCC(CO)CO)[C@H]1CC[C@H]2[C@@H]3[C@H](O)C[C@@H]4C[C@H](O)CC[C@]4(C)[C@H]3C[C@H](O)[C@]12C :: 138

----------
# Test system: male SD rats
# procedure.details: Thrombus formation in abdominal vena cava
# Assay type: in vivo
# protocol.conditions: 30 mg/kg, p.o.; dry weight of thrombus
# Method: Each of male SD rats of 130 to 210 g in body weight was anesthetized with Nembutal® (50 mg/kg, i.p.) and subjected to median incision ventrotomy to release about a 2 cm portion of abdominal vena cava below the renal vein. Blood flow of the thus released vena cava was temporarily stopped for 5 minutes with 8 hemostatic clips. After recirculating blood for 5 minutes by removing the hemostatic clips, […] was ligated at a position just below the renal vein and the median-incised part was sutured. […]
readout.type: Antithrombotic Effect: Thrombus weight ±S.E. (mg)

C[C@H](CC[C@@H](O)C1COC1)[C@H]1CC[C@H]2[C@@H]3[C@H](O)C[C@@H]4C[C@H](O)CC[C@]4(C)[C@H]3C[C@H](O)[C@]12C :: 11.2
C[C@H](CC[C@@H](O)[C@@H](C)CO)[C@H]1CC[C@H]2[C@@H]3[C@H](O)C[C@@H]4C[C@H](O)CC[C@]4(C)[C@H]3C[C@H](O)[C@]12C :: 14.4
CC(CCC1OCC1CO)C1CCC2C3C(O)CC4CC(O)CCC4(C)C3CC(O)C12C (stereo not drawn) :: 13.5

----------
inhibition at 100 µM values for the compounds below.
# Test system: red blood cells
# procedure.details: Inhibition of thermal hemolysis of red blood cells
# Assay type: cell-based, donryu rats
# protocol.conditions: Rattus norvegicus, Erythrocyte, 20 min; 0.1 mM; 53°C for 20 minutes; read-out: Hemolysis Inhibition Ratio (%) against Control
readout.type: inhibition at 100 µM (%)

C[C@H](CC[C@H](O)C(CO)CO)[C@H]1CC[C@H]2[C@@H]3[C@H](O)C[C@@H]4C[C@H](O)CC[C@]4(C)[C@H]3C[C@H](O)[C@]12C :: 37
C[C@H](CC[C@H]1OC[C@H]1CO)[C@H]1CC[C@H]2[C@@H]3[C@H](O)C[C@@H]4C[C@H](O)CC[C@]4(C)[C@H]3C[C@H](O)[C@]12C :: 31
C[C@H](CO)[C@H](O)CC[C@@H](C)[C@H]1CC[C@H]2[C@@H]3[C@H](O)C[C@@H]4C[C@H](O)CC[C@]4(C)[C@H]3C[C@H](O)[C@]12C :: 33
C[C@H](CC[C@H](O)[C@@H](C)CO)[C@H]1CC[C@H]2[C@@H]3[C@H](O)C[C@@H]4C[C@H](O)CC[C@]4(C)[C@H]3C[C@H](O)[C@]12C :: 38
CC(C)C(O)CC[C@@H](C)[C@H]1CC[C@H]2[C@@H]3[C@H](O)C[C@@H]4C[C@H](O)CC[C@]4(C)[C@H]3C[C@H](O)[C@]12C (stereo partly drawn) [Illustrative Example 5, 3α,7α,12α,24-tetrahydroxy-5β-cholestane] :: 33
C[C@H](CCCC(CO)CO)[C@H]1CC[C@H]2[C@@H]3[C@H](O)C[C@H]4C[C@H](O)CC[C@]4(C)[C@H]3C[C@H](O)[C@]12C :: 31
C[C@H](CC[C@H](O)[C@H](C)CO)[C@H]1CC[C@H]2[C@@H]3[C@H](O)C[C@@H]4C[C@H](O)CC[C@]4(C)[C@H]3C[C@H](O)[C@]12C :: 31

----------
# Tested on: male mice of ddY line
# Assay type: in vivo
# protocol.conditions: 50 mg/kg, i.p., 60 minutes before KCN (3.0 mg/kg) tail intravenous injection
readout.type: Lethality (%)

C[C@H](CO)[C@H](O)CC[C@@H](C)[C@H]1CC[C@H]2[C@@H]3[C@H](O)C[C@@H]4C[C@H](O)CC[C@]4(C)[C@H]3C[C@H](O)[C@]12C :: 90%
C[C@H](CC[C@@H](O)[C@@H](C)CO)[C@H]1CC[C@H]2[C@@H]3[C@H](O)C[C@@H]4C[C@H](O)CC[C@]4(C)[C@H]3C[C@H](O)[C@]12C :: 80%
C[C@H](CC[C@H](O)CCO)[C@H]1CC[C@H]2[C@@H]3[C@H](O)C[C@@H]4C[C@H](O)CC[C@]4(C)[C@H]3C[C@H](O)[C@]12C :: 80%
C[C@H](CC[C@@H](O)C(CO)CO)[C@H]1CC[C@H]2[C@@H]3[C@H](O)C[C@@H]4C[C@H](O)CC[C@]4(C)[C@H]3C[C@H](O)[C@]12C :: 70%
C[C@H](CCCC(C)(O)CO)[C@H]1CC[C@H]2[C@@H]3[C@H](O)C[C@@H]4C[C@H](O)CC[C@]4(C)[C@H]3C[C@H](O)[C@]12C (some centres unmarked) :: 70%
